- target-system: human STAT6/pIL-4Rα (Homo sapiens, UniProt P42226)
- Construct: histidine tag
- Sequence (P42226 123-658): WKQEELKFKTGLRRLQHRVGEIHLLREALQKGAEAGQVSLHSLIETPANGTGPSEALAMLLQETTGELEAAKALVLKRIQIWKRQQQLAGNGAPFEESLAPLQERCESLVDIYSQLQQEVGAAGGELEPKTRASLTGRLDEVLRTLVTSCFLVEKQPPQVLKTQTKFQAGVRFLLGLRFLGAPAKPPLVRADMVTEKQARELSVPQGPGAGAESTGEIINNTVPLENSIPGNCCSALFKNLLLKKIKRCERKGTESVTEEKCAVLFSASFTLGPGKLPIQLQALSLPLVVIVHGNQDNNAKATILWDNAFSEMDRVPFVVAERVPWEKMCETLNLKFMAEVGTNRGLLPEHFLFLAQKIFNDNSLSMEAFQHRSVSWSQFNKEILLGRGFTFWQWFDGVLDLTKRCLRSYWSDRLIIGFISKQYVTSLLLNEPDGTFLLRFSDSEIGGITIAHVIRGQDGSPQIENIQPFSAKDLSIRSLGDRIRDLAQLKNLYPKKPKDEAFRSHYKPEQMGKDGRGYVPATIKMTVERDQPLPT
- procedure-text: Binding inhibitory activity between human STAT6/pIL-4Rα by fluorescence polarization method
- condition-details: rhSTAT6 (123-658) / FAM-pIL-4Rα peptide
endpoint-label: IC50 (nM)
Field: numeric (nM). Do not append units.

Some solved entries appear below for comparison.
Entry COCCn1c(-c2ccc(-n3cnn(C)c3=O)cc2)cc2cc(C(F)(F)F)cc(C(=O)Nc3cccc(C(N)=O)c3F)c21 [Ex. 42] , IC50 reported as 260

Entry CCn1c(-c2ccc(N3C(=O)C(C)CC3C)cc2)cc2cc(C(F)(F)F)cc(C(=O)Nc3ccc(F)c(C(N)=O)c3)c21 (stereo not shown) [Ex. 160] , IC50 reported as 410

Entry CCn1c(-c2ccc(-n3cnn(C)c3=O)cc2)cc2ccnc(C(=O)Nc3ccc(F)c(C(N)=O)c3)c21 [Ex. 25] , IC50 reported as 280

Entry CCn1c(-c2ccc(N3CCCC3=O)cc2)cc2cc(C(F)(F)F)cc(C(=O)Nc3ccc(F)c(C(N)=O)c3)c21 [Ex. 146] , IC50 reported as 750

Further cases:
Entry CCn1c(-c2ccc(N3CCOCC3=O)cc2)cc2cc(C(F)(F)F)cc(C(=O)Nc3cccc(C(N)=O)c3F)c21 [Ex. 66] , IC50 reported as 320

Entry Cc1nn(C)c(=O)n1-c1ccc(-c2cc3ccnc(C(=O)Nc4cccc(C(N)=O)c4F)c3n2CCOCC(F)(F)F)cc1 [Ex. 113] , IC50 reported as 440

Entry COCCn1c(-c2ccc(-n3c(C)nn(C)c3=O)cc2)cc2cc(C(F)(F)F)cc(C(=O)Nc3cccc(C(=O)Nc4cc(Cl)n(C)n4)c3)c21 [Ex. 176] , IC50 reported as 280

* * *

Reported log10 IC50 values follow for various molecules
- target-system: human STAT6/pIL-4Rα (Homo sapiens, UniProt P42226)
- Construct: histidine tag
- Sequence (P42226 123-658): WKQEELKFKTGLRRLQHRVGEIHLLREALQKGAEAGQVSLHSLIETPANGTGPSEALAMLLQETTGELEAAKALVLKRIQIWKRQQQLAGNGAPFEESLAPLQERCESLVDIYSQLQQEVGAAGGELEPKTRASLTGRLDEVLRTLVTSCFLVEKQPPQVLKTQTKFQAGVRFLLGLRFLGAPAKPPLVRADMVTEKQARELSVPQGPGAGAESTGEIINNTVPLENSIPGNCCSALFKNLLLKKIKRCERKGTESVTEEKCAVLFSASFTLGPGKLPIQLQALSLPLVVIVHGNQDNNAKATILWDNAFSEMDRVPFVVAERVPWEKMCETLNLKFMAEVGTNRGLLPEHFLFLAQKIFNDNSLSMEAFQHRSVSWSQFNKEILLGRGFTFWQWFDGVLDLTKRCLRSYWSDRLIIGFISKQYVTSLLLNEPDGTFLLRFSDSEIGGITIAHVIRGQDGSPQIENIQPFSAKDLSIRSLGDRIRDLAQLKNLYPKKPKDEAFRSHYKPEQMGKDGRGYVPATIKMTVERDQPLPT
- procedure-text: Binding inhibitory activity between human STAT6/pIL-4Rα by fluorescence polarization method
- condition-details: rhSTAT6 (123-658) / FAM-pIL-4Rα peptide
Kindly note that the scale is log10 and the underlying IC50 is in nM.

Some solved entries appear below for comparison.
Given the molecule Cc1nn(C)c(=O)n1-c1ccc(-c2cc3cc(C(F)(F)F)nc(C(=O)Nc4ccc(F)c(C(N)=O)c4)c3n2C)cc1 and test system human STAT6/pIL-4Rα (Homo sapiens, UniProt P42226), the measured log10 IC50 is 2.36

Given the molecule COCCn1c(-c2ccc(-n3c(C)nn(C)c3=O)cc2)cc2ccnc(C(=O)Nc3cccc(C(=O)Nc4cccc(OC)n4)c3)c21 and test system human STAT6/pIL-4Rα (Homo sapiens, UniProt P42226), the measured log10 IC50 is 2.40

Given the molecule CCn1c(-c2ccc(-n3cnn(C)c3=O)cc2)cc2cc(C(F)(F)F)cc(C(=O)Nc3ccc(F)c(C(N)=O)c3)c21 [Ex. 38] and test system human STAT6/pIL-4Rα (Homo sapiens, UniProt P42226), the measured log10 IC50 is 2.52

Given the molecule COCCn1c(-c2ccc(-n3c(C)nn(C)c3=O)cc2)cc2cc(C(F)(F)F)cc(CNc3cccc(C(N)=O)c3)c21 and test system human STAT6/pIL-4Rα (Homo sapiens, UniProt P42226), the measured log10 IC50 is 3.29

Given the molecule CCn1c(-c2ccc(-n3cnn(C)c3=O)cc2)cc2ccnc(C(=O)Nc3cccc(C(N)=O)c3F)c21 and test system human STAT6/pIL-4Rα (Homo sapiens, UniProt P42226), the measured log10 IC50 is 2.58

Further cases:
Given the molecule C/C=C/c1cc(C(=O)Nc2cccc(C(N)=O)c2)c2c(c1)nc(-c1ccc(N(C)C(C)=O)cc1)n2CCOC and test system human STAT6/pIL-4Rα (Homo sapiens, UniProt P42226), the measured log10 IC50 is 3.85

This collection of values is drawn from patent US20260092054A1.
